Listing of entries alongside the reported melting point.

Solved cases (3 shown):
smiles.data	value.reported
COC1=C(OC)C(=O)C(Cc2ccc(O)c(C(=O)Nc3ccc(-c4ccn[nH]4)cc3)c2)=C(C)C1=O	182 to 185.5 °C
COC1=C(OC)C(=O)C(Cc2ccc(OC(C)=O)c(C(=O)Nc3cccc([N+](=O)[O-])c3)c2)=C(C)C1=O	152 to 153.5 °C
COC1=C(OC)C(=O)C(Cc2ccc(O)c(C(=O)Nc3ccccn3)c2)=C(C)C1=O	180 to 183 °C

Task item: Look at this compound and give its reported melting point. CC(=O)Oc1ccc(CC2=C(C)C(=O)C(C)=C(C)C2=O)cc1C(=O)Nc1cccnc1Cl
Reply: 130 to 131 °C

Task item: Look at this compound and give its reported melting point. COC1=C(OC)C(=O)C(Cc2ccc(O)c(C(=O)Nc3ccc(F)cc3)c2)=C(C)C1=O
Reply: 125 to 127 °C

Task item: Look at this compound and give its reported melting point. COC1=C(OC)C(=O)C(Cc2ccc(O)c(C(=O)Nc3ccnc(OC)c3)c2)=C(C)C1=O
Reply: 218 to 220.5 °C

Task item: Look at this compound and give its reported melting point. COC1=C(OC)C(=O)C(Cc2ccc(C(=O)Nc3ccncc3)c(O)c2)=C(C)C1=O
Reply: 181.4 to 183.3 °C
